# procedure_summary: compound fluorescence in GFP channel, mTEFS cells – imaging, mTEFS fibroblasts, cherry-pick, artefact control for X-chromosome reactivation project, dose response (AID 743396);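 note: raw share of Hoechst-counted cells scored GFP positive without control normalization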
# test_parameters: mTEFS fibroblasts autofluorescence, GFP-channel imaging, 3 days; at 19.5 µM (top of the series); cells pretreated with 5-aza-dC
Measured % fluorescent cells increase of individual entries
Write the number in % without appending the unit.

Consider the reported % fluorescent cells increase for these compounds:
compound	assay_result
Cc1ccc(-c2nc(CS(=O)CC(=O)NCCCN3CC(C)CC(C)C3)c(C)o2)cc1 (stereo not given)	0.023
COc1ccc(C(=O)Nc2ccc3oc(-c4cccc(F)c4)nc3c2)cc1OC	-0.003
CO[C@@H]1CN(C)C(=O)c2cc(NS(C)(=O)=O)ccc2OC[C@H](C)N(C(=O)C2CCCC2)C[C@H]1C	0.308

What value of % fluorescent cells increase has been recorded for this entry: CC1CN(Cc2c(O)ccc3c2oc(=O)c2ccccc23)CC(C)O1 (stereo not given)
0.279

What value of % fluorescent cells increase has been recorded for this entry: "CCOC(=O)c1nn(-c2ccc3ccccc3c2)cc1O"
0.04

What value of % fluorescent cells increase has been recorded for this entry: "S=C(SSC(=S)N1CCOCC1)N1CCOCC1"
0

What value of % fluorescent cells increase has been recorded for this entry: "COc1cc(/C=C/c2ccc3cccc(O)c3n2)ccc1O"
0

What value of % fluorescent cells increase has been recorded for this entry: "CCOC(=O)CSc1nnc(CCCCCN2C(=O)c3cccc4cccc(c34)C2=O)o1"
0.071

What value of % fluorescent cells increase has been recorded for this entry: "COC(=O)c1ccc(NC(=O)c2nc(S(=O)(=O)Cc3cccc(C)c3)ncc2Cl)cc1"
-0.007

What value of % fluorescent cells increase has been recorded for this entry: CCOC(=O)C1=c2/c(=C/c3ccncc3)c(N)c(C(=O)OC)n2C(=O)C(c2ccncc2)S1 (stereo not given)
0.042

---

Measured % fluorescent cells increase of individual entries
# procedure_summary: compound fluorescence in GFP channel, mTEFS cells – imaging, mTEFS fibroblasts, cherry-pick, artefact control for X-chromosome reactivation project, dose response (AID 743396)
# test_parameters: mTEFS fibroblasts autofluorescence, GFP-channel imaging, 3 days; at 19.5 µM (top of the series); cells pretreated with 5-aza-dC
Activity calls are given as the source filed them.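 How the source made its calls: active means fitted curve reaches a 40% rise in fluorescent cells at or below the top valid dose; inactive means opposite-direction effect, or the rest.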

Consider the reported % fluorescent cells increase for these molecules:
molecule	% fluorescent cells increase
CN(C)CCN(Cc1ccc(Cl)cc1)c1ccccn1	-0.004% (inactive)
CC(=O)N[C@@H](CC(=O)O)C(=O)O	0.642% (inactive)

Switching to the query record.
What value of % fluorescent cells increase has been recorded for this entry: "O=c1[nH]nc(SCCS(=O)(=O)c2ccc(F)cc2)n1-c1ccccc1C(F)(F)F"
-0.004% (inactive)

---

# procedure_summary: compound fluorescence in GFP channel, mTEFS cells – imaging, mTEFS fibroblasts, cherry-pick, artefact control for X-chromosome reactivation project, dose response (AID 743396)
# test_parameters: mTEFS fibroblasts autofluorescence, GFP-channel imaging, 3 days; at 19.5 µM (top of the series); cells pretreated with 5-aza-dC
metric: % fluorescent cells increase (%)
Write the number in % without appending the unit.

molecule	measurement_unit	% fluorescent cells increase
O=C(c1cnccn1)N1CC(=O)N2[C@H](CO)[C@@H](c3ccc(-c4cccc(F)c4)cc3)[C@@H]2C1	%	-0.166
Nc1nc(C2CCOCC2)cs1	%	0.017
COc1ccc(NC(=O)Nc2ccc3c(c2)C(=O)N([C@@H](C)CO)C[C@H](C)[C@@H](CN(C)S(=O)(=O)c2ccc(OC)cc2)O3)cc1	%	0
Cc1nnc(-c2ccc(N3CCCCCC3)c([N+](=O)[O-])c2)o1	%	0
N/C(=N\OC(=O)C12CC3CC(CC(C3)C1)C2)c1ccncc1	%	-0.004

What value of % fluorescent cells increase has been recorded for this entry: CN(Cc1nccn1C)C(=O)CC1C(=O)NCCN1CC(c1ccccc1)c1ccccc1 (stereo unspecified)
0.889

What value of % fluorescent cells increase has been recorded for this entry: "COc1ccc(Nc2nc(N)c(C(=O)c3ccc(F)cc3)s2)cc1"
0

What value of % fluorescent cells increase has been recorded for this entry: "COc1cc(/C=C2\SC(=S)N(N3CCOCC3)C2=O)cc(OC)c1OC"
-0.007

What value of % fluorescent cells increase has been recorded for this entry: "O=c1c2cc(-c3ccccc3)sc2nc2n1N=C(c1ccccc1)CS2"
1.14

---

# procedure_summary: compound fluorescence in GFP channel, mTEFS cells – imaging, mTEFS fibroblasts, cherry-pick, artefact control for X-chromosome reactivation project, dose response (AID 743396);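 note: raw share of Hoechst-counted cells scored GFP positive without control normalization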
# test_parameters: mTEFS fibroblasts autofluorescence, GFP-channel imaging, 3 days; at 21 µM (top of the series); cells pretreated with 5-aza-dC
Measured % fluorescent cells increase of individual entries
Write the number in % without appending the unit.

Consider the reported % fluorescent cells increase for these molecules:
Cc1cccc(CN(C)C[C@@H]2Oc3ncc(C#Cc4ccccc4)cc3C(=O)N([C@H](C)CO)C[C@@H]2C)c1 0
CO[C@H](CN(C)C(=O)Nc1ccc(C(F)(F)F)cc1)[C@@H](C)CN(Cc1ccccc1Cl)[C@@H](C)CO 0
Cc1noc(C)c1NC(=O)N(C)C[C@@H]1Oc2ccc(NC(=O)C3CC3)cc2CC(=O)N([C@@H](C)CO)C[C@@H]1C 0.068
Cc1ccc(-c2ccccc2[C@@H]2[C@H](C#N)N(S(C)(=O)=O)[C@H]2CO)cc1 -0.036

What value of % fluorescent cells increase has been recorded for this entry: "COc1ccc(S(=O)(=O)N(C)C[C@@H]2OCc3cn(nn3)CCCC(=O)N([C@@H](C)CO)C[C@@H]2C)cc1"
0.036

---

Measured % fluorescent cells increase of individual entries
# procedure_summary: compound fluorescence in GFP channel, mTEFS cells – imaging, mTEFS fibroblasts, cherry-pick, artefact control for X-chromosome reactivation project, dose response (AID 743396);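 note: raw share of Hoechst-counted cells scored GFP positive without control normalization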
# test_parameters: mTEFS fibroblasts autofluorescence, GFP-channel imaging, 3 days; at 19.5 µM (top of the series); cells pretreated with 5-aza-dC
Write the number in % without appending the unit.

Consider the reported % fluorescent cells increase for these compounds:
Cc1cc(-c2nc(C)c(-c3nnc(SCC(=O)Nc4ccc(Cl)cc4)n3C)s2)no1 0
O=[N+]([O-])c1ccc(Sc2nnnn2-c2ccccc2)nc1 -0.007
O=C(/C=C/Sc1ccc(C(F)(F)F)cn1)c1ccccc1 -0.007

What value of % fluorescent cells increase has been recorded for this entry: "COc1ccc2c3c(n(C)c2c1)[C@@H](CO)N(C)CC31CN(C(=O)NC(C)C)C1"
-0.14

What value of % fluorescent cells increase has been recorded for this entry: "Cc1ccc(-c2csc3nc4c5ccccc5c(NCCCN(C)C)nn4c(=O)c23)cc1"
0

What value of % fluorescent cells increase has been recorded for this entry: "Cc1cc(NC(=O)c2ccccc2)n(-c2nc3ccccc3[nH]2)n1"
0.023

What value of % fluorescent cells increase has been recorded for this entry: "CN(C)CCN(C(=O)c1ccc(S(=O)(=O)N(C)c2ccccc2)cc1)c1nc2cc3c(cc2s1)OCCO3"
0

What value of % fluorescent cells increase has been recorded for this entry: "Cc1noc(C)c1NC(=O)N[C@H]1CC[C@H](CC(=O)N2CCN(C)CC2)O[C@H]1CO"
0.024

What value of % fluorescent cells increase has been recorded for this entry: "CC(=O)Nc1sc(N/N=C/c2ccc(N(C)C)cc2)nc1-c1ccc(C)cc1"
-0.004

What value of % fluorescent cells increase has been recorded for this entry: "NNC(=O)c1sc(-c2ccccc2)cc1N"
1.36

---

# procedure_summary: compound fluorescence in GFP channel, mTEFS cells – imaging, mTEFS fibroblasts, cherry-pick, artefact control for X-chromosome reactivation project, dose response (AID 743396);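 note: raw share of Hoechst-counted cells scored GFP positive without control normalization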
# test_parameters: mTEFS fibroblasts autofluorescence, GFP-channel imaging, 3 days; at 19.5 µM (top of the series); cells pretreated with 5-aza-dC
metric: % fluorescent cells increase (%)
Write the number in % without appending the unit.

What value of % fluorescent cells increase has been recorded for this entry: COc1cccc(CNC(=O)c2ccc(NC(=O)CC3SC(N4CCCC4)=NC3=O)cc2)c1 (stereo unspecified)
0

What value of % fluorescent cells increase has been recorded for this entry: "CCOC(=O)c1ccc(NC(=O)c2ccnn2C)cc1"
0

What value of % fluorescent cells increase has been recorded for this entry: CC(O)(c1ccccc1)c1nc(-c2ccncc2)cs1 (stereo unspecified)
0.38

What value of % fluorescent cells increase has been recorded for this entry: "CCOC(=O)Cn1c(=NC(=O)c2ccc([N+](=O)[O-])s2)sc2ccccc21"
12

What value of % fluorescent cells increase has been recorded for this entry: "CC(C)OC(=O)CC(=O)CSc1nc(-c2ccc(F)cc2)cc(-c2ccccc2)c1C#N"
0.594

What value of % fluorescent cells increase has been recorded for this entry: "O=C(Nc1cccc(C(=O)O)c1)/C(=C\c1ccccc1)NC(=O)c1ccc(Br)o1"
0

What value of % fluorescent cells increase has been recorded for this entry: "COc1ccc(CN(C)C[C@H]2OCCCC[C@@H](C)Oc3ccc(NC(=O)Nc4ccc(F)cc4)cc3C(=O)N([C@@H](C)CO)C[C@H]2C)cc1"
0

What value of % fluorescent cells increase has been recorded for this entry: "Cc1ccc(C)c(OCCC(=O)Nc2cc(S(=O)(=O)N3CCCCC3)ccc2C)c1"
13

What value of % fluorescent cells increase has been recorded for this entry: "Nc1nnc(SCC(=O)c2ccc([N+](=O)[O-])cc2)s1"
-0.007

What value of % fluorescent cells increase has been recorded for this entry: "NC(=NC(=O)c1cccc(C(F)(F)F)c1)c1ccc(C(F)(F)F)cn1"
0

What value of % fluorescent cells increase has been recorded for this entry: "COc1ccc(/C=C\c2onc(C)c2S(=O)(=O)N2CCC(C(=O)NCc3ccco3)CC2)cc1"
0.029

What value of % fluorescent cells increase has been recorded for this entry: "Cn1c(=O)c(C#N)c(-c2ccc(F)cc2)c2cc(C(=O)c3cc(Cl)cc(Cl)c3O)cnc21"
0.617

What value of % fluorescent cells increase has been recorded for this entry: "CCN1C(=O)C(=Cc2cccc(OC)c2Oc2ccc([N+](=O)[O-])cc2[N+](=O)[O-])SC1=S"
1.07

What value of % fluorescent cells increase has been recorded for this entry: "COc1cc(C(=O)NC(=S)Nc2cccc3nc(C)ccc23)cc(OC)c1OC"
0.128

What value of % fluorescent cells increase has been recorded for this entry: CCC(C)c1nc2ccsc2c(N2CCOC2=O)c1-c1ccccc1 (stereo unspecified)
-0.011

What value of % fluorescent cells increase has been recorded for this entry: "Cc1cc(C(=O)NCc2cc(F)cc3c2OCOC3)nn1C"
-0.003

What value of % fluorescent cells increase has been recorded for this entry: "CN(Cc1cccs1)C(=O)Cc1c[nH]c2ccccc12"
0.005

What value of % fluorescent cells increase has been recorded for this entry: "CCCNNC(=O)C(O)(c1ccccc1)c1ccccc1"
0.02
